Reference source for all entries: PubChem BioAssay AID1963432

Tested on: SYO-1 complex spheroid growth, percent test/control
assay_notes: Anticancer human tumor SYO-1 cell line growth inhibition [Asc];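 note: compound exposure lasted 7 days after spheroids grew 3 days; 100% = DMSO vehicle control viability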
study_conditions: second compound 0.316 µM; first compound 0.0949 µM; stronger effect = lower value
measurement_label: viability, T/C (%)
// units = %; emit number, no label

Record for CCN1C(C(=O)NC23CCC(C(=O)O)(CC2)CC3)C(c2cccc(Cl)c2F)C2(C(=O)Nc3cc(Cl)ccc32)C12CCCCC2 (stereo unspecified) + CNC(C)C(=O)NC1CN(S(=O)(=O)c2cccc(S(=O)(=O)N3CCC4CCC(C(=O)NC(c5ccccc5)c5ccccc5)N4C(=O)C(NC(=O)C(C)NC)C3)c2)CCC2CCC(C(=O)NC(c3ccccc3)c3ccccc3)N2C1=O under target or system SYO-1 complex spheroid growth, percent test/control: viability, T/C reported as 59.6
